B1: Hairpin Ribozyme (parent)
chain: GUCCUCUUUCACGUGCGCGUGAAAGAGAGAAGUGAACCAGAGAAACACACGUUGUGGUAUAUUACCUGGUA

Variants of: B1
procedure-text: self-cleavage, relative activity (ratio to wild type); higher = more cleavage; co-transcriptional
Decision: self-cleavage >= 0.3 yields TRUE, all other cases yield FALSE.

U9G A28C = TRUE

Check if self-cleavage >= 0.3 (inclusive). Item: U8A A11U
TRUE

Does the reported self-cleavage for C37U A47C fall at or above the 0.3 mark?
FALSE

Does G32A U63A have a reported self-cleavage of at least 0.3?
FALSE

Kindly determine if self-cleavage recorded for G54A U63G is above or exactly 0.3.
FALSE

Please indicate if the recorded self-cleavage for G19A A22C meets or exceeds 0.3.
TRUE

Quick check, self-cleavage >= 0.3? A26C G27U
FALSE
